Cited source for all entries: patent US9926324B2

protocolText: Pharmacokinetic profiles in rats after intravenous and oral administration
Type: in vivo
assayContext: rat, plasma, iv dosing 1 mg/kg, read-out: Vss
Group membership follows Vd per the scheme bottom bin = under 0.3 L/kg, middle bin = from 0.3 L/kg up to 0.4 L/kg, top bin = 0.4 L/kg and over

Worked set:
INSERT INTO measurements (compound, assignedcategory) VALUES
  ('CC#Cc1cnc2ccc(-c3cnc(OC)c(NS(=O)(=O)c4ccc(F)cc4)c3)nn12', 'top bin'),
  ('C#Cc1cnc2ccc(-c3cnc(OC)c(NS(=O)(=O)c4ccc(F)cc4)c3)nn12', 'top bin');

QUERY: Any idea which band COc1ncc(-c2ccc3ncc(C#CCO)n3n2)cc1NS(=O)(=O)c1ccc(F)cc1F is in?
RESULT: middle bin

QUERY: Any idea which band COc1ncc(-c2ccc3ncc(C#CC(C)O)n3c2)cc1NS(=O)(=O)c1ccc(F)cc1F (stereo not shown) is in?
RESULT: middle bin

QUERY: Any idea which band CC#Cc1cnc2ccc(-c3cnc(OC)c(NS(=O)(=O)c4ccc(F)cc4F)c3)nn12 is in?
RESULT: middle bin

QUERY: Any idea which band COc1ncc(-c2ccc3ncc(C#CC(C)(C)O)n3n2)cc1NS(=O)(=O)c1ccc(F)cc1F is in?
RESULT: bottom bin

QUERY: Any idea which band CC#Cc1cnc2ccc(-c3cnc(OC)c(NS(=O)(=O)c4ccc(F)cc4F)c3)cn12 is in?
RESULT: middle bin

QUERY: Any idea which band COc1ncc(-c2ccc3ncc(C#CC(C)(C)O)n3c2)cc1NS(=O)(=O)c1ccc(F)cc1F is in?
RESULT: bottom bin

QUERY: Any idea which band COc1ncc(-c2ccc3nnc(C#CC(C)O)n3c2)cc1NS(=O)(=O)c1ccc(F)cc1F (stereo not shown) is in?
RESULT: bottom bin

QUERY: Any idea which band COc1ncc(-c2ccc3ncc(C#N)n3n2)cc1NS(=O)(=O)c1ccc(F)cc1 is in?
RESULT: top bin

====

Quick reference for F among some compounds
protocolText: Pharmacokinetic profiles in rats after intravenous and oral administration
Format: in vivo
assayContext: iv dose 2 mg/kg, oral dose generally 5 or 10 mg/kg
Write the number in % without appending the unit.

INSERT INTO assay_data (compound, obsvalue) VALUES
  ('COc1ncc(-c2ccc3ncc(C#N)n3c2)cc1NS(=O)(=O)c1ccc(F)cc1F [Ex. 19]', 54.66),
  ('COc1ncc(-c2ccc3ncc(C#CCO)n3n2)cc1NS(=O)(=O)c1ccc(F)cc1 [Ex. 2]', 56.1),
  ('C#Cc1cnc2ccc(-c3cnc(Cl)c(NS(=O)(=O)c4ccc(F)cc4)c3)nn12 [Ex. 7]', 95.4),
  ('COc1ncc(-c2ccc3ncc(C#N)n3n2)cc1NS(=O)(=O)c1ccc(F)cc1F [Ex. 24]', 108);

QUERY: Using known records, supply F for COc1ncc(-c2ccc3ncc(C#CC(C)O)n3n2)cc1NS(=O)(=O)c1ccc(F)cc1 (centres unmarked) [Ex. 3]
RESULT: 61.5

QUERY: Using known records, supply F for COc1ncc(-c2ccc3ncc(C#CCO)n3c2)cc1NS(=O)(=O)c1ccc(F)cc1F [Ex. 15]
RESULT: 97.0

QUERY: Using known records, supply F for COc1ncc(-c2ccc3ncc(C#CC(C)O)n3n2)cc1NS(=O)(=O)c1ccc(F)cc1F (centres unmarked) [Ex. 10]
RESULT: 79.88

QUERY: Using known records, supply F for C#Cc1cnc2ccc(-c3cnc(OC)c(NS(=O)(=O)c4ccc(F)cc4F)c3)nn12 [Ex. 8]
RESULT: 115.1

====

Quick reference for half-life at 5 μM among some molecules
protocolText: Compound stability in human liver microsomes
Type: in vitro ADME
assayContext: pH 7.4; human liver microsomes 0.5 mg protein/mL, compound 5 μM, NADPH 1.0 mM, 37° C.; read-out: Human T1/2
Write the number in h without appending the unit.

INSERT INTO results (molecule, obsvalue) VALUES
  ('C#Cc1cnc2ccc(-c3cnc(OC)c(NS(=O)(=O)c4ccc(F)cc4F)c3)nn12', 4.04),
  ('CC#Cc1cnc2ccc(-c3cnc(OC)c(NS(=O)(=O)c4ccc(F)cc4)c3)nn12', 1.14),
  ('COc1ncc(-c2ccc3ncc(C#CC(C)O)n3n2)cc1NS(=O)(=O)c1ccc(F)cc1 (centres unmarked)', 2.4),
  ('CC#Cc1cnc2ccc(-c3cnc(OC)c(NS(=O)(=O)c4ccc(F)cc4F)c3)nn12', 18.8),
  ('COc1ncc(-c2ccc3ncc(C#CCO)n3c2)cc1NS(=O)(=O)c1ccc(F)cc1F', 8.39);

QUERY: Using known records, supply half-life at 5 μM for COc1ncc(-c2ccc3ncc(C#CC(C)(C)O)n3c2)cc1NS(=O)(=O)c1ccc(F)cc1F
RESULT: 8.53

QUERY: Using known records, supply half-life at 5 μM for COc1ncc(-c2ccc3ncc(C#CC(C)O)n3c2)cc1NS(=O)(=O)c1ccc(F)cc1F (centres unmarked)
RESULT: 5.22

QUERY: Using known records, supply half-life at 5 μM for COc1ncc(-c2ccc3ncc(C#CC(C)(C)O)n3n2)cc1NS(=O)(=O)c1ccc(F)cc1
RESULT: 1.87

====

protocolText: Compound stability in rat liver microsomes
Format: in vitro ADME
assayContext: pH 7.4; rat liver microsomes 0.5 mg protein/mL, compound 5 μM, NADPH 1.0 mM, 37° C.; read-out: Rat T1/2
metricName: half-life at 5 μM

Use these answered entries as a reference point.
INSERT INTO measurements (molecule, metricname, obsvalue) VALUES
  ('COc1ncc(-c2ccc3ncc(C#CC(C)O)n3c2)cc1NS(=O)(=O)c1ccc(F)cc1F (centres unmarked)', 'half-life at 5 μM', '53.7 min'),
  ('COc1ncc(-c2ccc3ncc(C#CC(C)(C)O)n3c2)cc1NS(=O)(=O)c1ccc(F)cc1F', 'half-life at 5 μM', '280 min'),
  ('CC#Cc1cnc2ccc(-c3cnc(OC)c(NS(=O)(=O)c4ccc(F)cc4)c3)nn12', 'half-life at 5 μM', '35.7 min');

QUERY: Using known records, supply half-life at 5 μM for C#Cc1cnc2ccc(-c3cnc(OC)c(NS(=O)(=O)c4ccc(F)cc4)c3)nn12
RESULT: 97.4 min

QUERY: Using known records, supply half-life at 5 μM for COc1ncc(-c2ccc3ncc(C#CC(C)(C)O)n3n2)cc1NS(=O)(=O)c1ccc(F)cc1
RESULT: 40 min

QUERY: Using known records, supply half-life at 5 μM for COc1ncc(-c2ccc3ncc(C#CC(C)O)n3n2)cc1NS(=O)(=O)c1ccc(F)cc1F (centres unmarked)
RESULT: 279 min

QUERY: Using known records, supply half-life at 5 μM for CC#Cc1cnc2ccc(-c3cnc(OC)c(NS(=O)(=O)c4ccc(F)cc4F)c3)cn12
RESULT: 43.9 min

QUERY: Using known records, supply half-life at 5 μM for COc1ncc(-c2ccc3ncc(C#CC(C)O)n3n2)cc1NS(=O)(=O)c1ccc(F)cc1 (centres unmarked)
RESULT: 50.6 min

====

protocolText: Pharmacokinetic profiles in rats after intravenous and oral administration
Format: in vivo
assayContext: rat, plasma, iv dosing 1 mg/kg
Classify as follows. Reported AUC(0-t) greater than or equal to 10000 ng·h/mL: YES. Reported AUC(0-t) below: NO.

Worked set:
INSERT INTO measurements (compound, assignedcategory) VALUES
  ('COc1ncc(-c2ccc3nnc(C#CC(C)O)n3c2)cc1NS(=O)(=O)c1ccc(F)cc1F (stereo not shown)', 'NO'),
  ('COc1ncc(-c2ccc3ncc(C#N)n3n2)cc1NS(=O)(=O)c1ccc(F)cc1', 'NO'),
  ('COc1ncc(-c2ccc3ncc(C#CC(C)(C)O)n3c2)cc1NS(=O)(=O)c1ccc(F)cc1F', 'YES');

QUERY: Has CC#Cc1cnc2ccc(-c3cnc(OC)c(NS(=O)(=O)c4ccc(F)cc4)c3)nn12 a recorded AUC(0-t) greater than or equal to 10000 ng·h/mL?
RESULT: NO

QUERY: Has COc1ncc(-c2ccc3ncc(C#CC(C)O)n3c2)cc1NS(=O)(=O)c1ccc(F)cc1F (stereo not shown) a recorded AUC(0-t) greater than or equal to 10000 ng·h/mL?
RESULT: YES

QUERY: Has COc1ncc(-c2ccc3ncc(C#CC(C)(C)O)n3n2)cc1NS(=O)(=O)c1ccc(F)cc1F a recorded AUC(0-t) greater than or equal to 10000 ng·h/mL?
RESULT: YES

QUERY: Has COc1ncc(-c2ccc3ncc(C#CCO)n3n2)cc1NS(=O)(=O)c1ccc(F)cc1F a recorded AUC(0-t) greater than or equal to 10000 ng·h/mL?
RESULT: NO

QUERY: Has CC#Cc1cnc2ccc(-c3cnc(OC)c(NS(=O)(=O)c4ccc(F)cc4F)c3)nn12 a recorded AUC(0-t) greater than or equal to 10000 ng·h/mL?
RESULT: YES

QUERY: Has C#Cc1cnc2ccc(-c3cnc(OC)c(NS(=O)(=O)c4ccc(F)cc4)c3)nn12 a recorded AUC(0-t) greater than or equal to 10000 ng·h/mL?
RESULT: NO
